- assay: activity coefficient (dimensionless); of the first substance listed, at infinite dilution; xn = mol fraction of the nth substance listed
- testContext: 338.15 K; Liquid; Chromatography; x1 = 0
Exercise: for every item that follows, state its recorded activity coefficient.
// response body must contain only the number

Tell me measured activity coefficient for CC(C)(C)O [2-methylpropan-2-ol] + CCCCn1cc[n+](C)c1.N#CN=C=[N-] please. 1.16

Provide only the value of recorded activity coefficient for c1ccncc1 [pyridine] + CCCCn1cc[n+](C)c1.N#CN=C=[N-] 0.94

Look up and report measured activity coefficient for this entry: CCCCCCCC [octane] + CCCCn1cc[n+](C)c1.N#CN=C=[N-] 123

Could you please provide reported activity coefficient for CCCCCCCCCC [decane] + CCCCn1cc[n+](C)c1.N#CN=C=[N-] ? Thanks! 260

Look up and report measured activity coefficient for this entry: CCC(=O)OC [methyl propanoate] + CCCCn1cc[n+](C)c1.N#CN=C=[N-] 2.59

Please list activity coefficient recorded for the compound C=C(C)c1ccccc1 [(1-methylethenyl)benzene] + CCCCn1cc[n+](C)c1.N#CN=C=[N-] 3.79

Identify measured activity coefficient associated with Cc1ccc(C)cc1 [1,4-dimethylbenzene] + CCCCn1cc[n+](C)c1.N#CN=C=[N-] 4.82

Return value of activity coefficient for input Cc1ccccc1 [toluene] + CCCCn1cc[n+](C)c1.N#CN=C=[N-] , no commentary. 3.15

Provide one value: measured activity coefficient of COC(C)=O [methyl ethanoate] + CCCCn1cc[n+](C)c1.N#CN=C=[N-] 1.81
